# Tested on: HEp-2
# TEST_DESCRIPTION: Compound's concentration required to inhibit proliferation of cultured HEP-2 cells to 50% growth during 48 hours.
# Type: functional, cell-based
# MEASUREMENT_CONTEXT: Homo sapiens, HEp-2, 48 h
MEASURED_ENDPOINT: IC50
Form entry: enter the amount, then its unit.

Could you share which IC50 value was measured for CCOC(=O)Nc1cc(NC(c2ccccc2)c2ccccc2)c(N)c(N)n1 ? 260 nM

---

# Test system: P388
# TEST_DESCRIPTION: Compound was evaluated for antitumor activity against mice implanted with lymphatic leukemia P388 cells (10e6 tumor cells) after intraperitoneal administration of 200 mg/kg per injection (1-5 days)
# Assay type: functional
# MEASUREMENT_CONTEXT: Mus musculus, P388, ip
MEASURED_ENDPOINT: ILS at 200 mg/kg (%)
Numbers only, in %.

In [3]: df
Out[3]:
                                   compound  target  measured
0  CCOC(=O)Nc1cc(N[C@H](C)[C@@H](O)c2ccc(O)cc2)c([N+](=O)[O-])c(N)n1    P388         0
1  CCOC(=O)Nc1cc(N[C@@H](C)[C@H](O)c2ccc(O)cc2)c([N+](=O)[O-])c(N)n1    P388        20
2  CCCCC(O)C(C)Nc1cc(NC(=O)OCC)nc(N)c1N (centres undefined)    P388        10
3  CCOC(=O)Nc1cc(N[C@H](C)[C@@H](O)c2ccccc2)c(N)c(N)n1    P388        10
4  CCOC(=O)Nc1cc(N[C@@H](C)[C@H](O)c2ccccc2)c([N+](=O)[O-])c(N)n1    P388        53
5  CCOC(=O)Nc1cc(N[C@H](C)C(=O)c2ccccc2)c([N+](=O)[O-])c(N)n1    P388         0
6  CCOC(=O)Nc1cc(NC(C)C(=O)Cc2ccccc2)c([N+](=O)[O-])c(N)n1 (centres undefined)    P388        10
7  CCOC(=O)Nc1cc(N[C@H](C)[C@@H](O)c2ccccc2)c([N+](=O)[O-])c(N)n1    P388         0

Let us move to another entry and its ILS at 200 mg/kg.
Could you share which ILS at 200 mg/kg value was measured for CCOC(=O)Nc1cc(N[C@H](C)[C@@H](O)c2ccc(O)cc2)c(N)c(N)n1 ? 0
